Reference for the values: patent US20220275067A1

Hi there, I'd appreciate the recorded MTT viability of primary neurons with tau oligomers, antibody at 5 molar equivs for every entry that follows.
- testedSystem: human tau oligomers (human, UniProt P10636-6 2-383, limits assumed)
- Sequence (P10636 other isoform, or with tags, fused parts or gaps limits assumed): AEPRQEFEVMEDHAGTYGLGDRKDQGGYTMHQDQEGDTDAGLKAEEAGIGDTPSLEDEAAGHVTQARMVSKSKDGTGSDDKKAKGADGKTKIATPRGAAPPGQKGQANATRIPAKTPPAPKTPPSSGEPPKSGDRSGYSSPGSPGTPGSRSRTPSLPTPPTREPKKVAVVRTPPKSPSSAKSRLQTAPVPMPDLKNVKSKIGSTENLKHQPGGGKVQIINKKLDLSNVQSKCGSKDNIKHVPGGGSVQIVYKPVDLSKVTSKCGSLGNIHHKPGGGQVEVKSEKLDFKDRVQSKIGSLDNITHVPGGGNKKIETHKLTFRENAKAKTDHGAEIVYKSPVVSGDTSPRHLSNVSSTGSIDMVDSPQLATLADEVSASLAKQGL
- assayDetails: cell-based or functional assay

Worked examples follow.
| binder | result |
| --- | --- |
| mouse 9F5 antibody (antibody, mouse IgG1, V domains shown, also called m9F5; murine 9F5) VH: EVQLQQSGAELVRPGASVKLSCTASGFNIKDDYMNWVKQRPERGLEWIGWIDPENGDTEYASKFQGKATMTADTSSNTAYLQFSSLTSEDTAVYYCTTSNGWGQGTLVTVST VL: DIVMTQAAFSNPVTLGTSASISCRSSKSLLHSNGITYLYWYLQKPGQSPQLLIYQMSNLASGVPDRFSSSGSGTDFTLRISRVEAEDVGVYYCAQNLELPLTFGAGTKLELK | 93.1 % of control |
| mouse 12C4 antibody (antibody, mouse IgG2a, V domains shown, also called m12C4) VH: EVQLQQSGAELVRPGASVKLSCTASGFNIKDDYMNWVRQRPERGLEWIGWIDPENGDTAYASKFQGKATMTADTSSNTAYLQFSSLTSEDSAVYYCTTSNGWGQGTLVTVSA VL: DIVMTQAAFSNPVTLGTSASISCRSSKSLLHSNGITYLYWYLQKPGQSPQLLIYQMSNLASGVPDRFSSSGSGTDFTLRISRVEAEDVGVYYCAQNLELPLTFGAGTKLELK | 81.1 % of control |

Respectfully, I request MTT viability of primary neurons with tau oligomers, antibody at 5 molar equivs for each entry included below.
1. mouse 2D11 antibody (antibody, mouse IgG2a, V domains shown) VH: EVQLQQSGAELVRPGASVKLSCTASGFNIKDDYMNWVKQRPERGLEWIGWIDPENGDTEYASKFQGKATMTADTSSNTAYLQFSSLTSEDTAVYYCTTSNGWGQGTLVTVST VL: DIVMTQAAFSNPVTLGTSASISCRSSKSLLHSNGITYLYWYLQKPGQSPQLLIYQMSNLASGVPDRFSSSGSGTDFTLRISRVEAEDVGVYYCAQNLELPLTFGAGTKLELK
2. mouse 10C12 antibody (antibody, mouse IgG2a, V domains shown, also called m10C12) VH: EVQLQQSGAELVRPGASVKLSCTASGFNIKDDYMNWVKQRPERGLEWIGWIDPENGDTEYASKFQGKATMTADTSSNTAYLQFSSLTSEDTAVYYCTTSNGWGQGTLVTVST VL: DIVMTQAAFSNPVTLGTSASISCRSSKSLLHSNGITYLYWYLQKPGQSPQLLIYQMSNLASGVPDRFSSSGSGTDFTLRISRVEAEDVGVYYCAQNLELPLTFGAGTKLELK

1. 92.2 % of control
2. 86.8 % of control
